- testedOn: Sushi domains (SD1/2) protein
- protocol: Fluorescence polarization (FP) competition assay with AJAP-1probe, calculated Ki
- Type: binding
- conditions: Table 9, Ala-, D-amino acids and N-methylation scans of PIANPWT; read-out: Ki (nM) mean ± SEM
- Protocol: Fluorescence polarization (FP). FP assay was employed to determine the binding affinity of peptides in flat bottom black 384-well plates (Corning Life Science) using a Safire2 plate reader (Tecan). […] The fluorescence polarization values were measured using excitation/emission wavelengths of 530/580 nm. The instrumental Z-factor was adjusted to obtain the maximum fluorescence intensity and the G-factor was calibrated to give an initial millipolarization value of 20 mP. […]
Non-standard residues stand in square brackets, D forms with d. Residues, ends and D or L forms follow the SMILES beside them. NMeW = CN[C@@H](Cc1c[nH]c2ccccc12)C(=O)O; NMeE = CN[C@@H](CCC(=O)O)C(=O)O; NMeV = CN[C@H](C(=O)O)C(C)C; Sar = CNCC(=O)O
endpointLabel: Ki (nM)
# unit: nM | format: bare number

Lab request: please report Ki under test system Sushi domains (SD1/2) protein for CC[C@H](C)[C@H](NC(=O)[C@H](C)NC(=O)[C@H](Cc1c[nH]c2ccccc12)NC(=O)[C@@H]1CCCN1C(C)=O)C(=O)N[C@H](C(=O)N[C@@H](Cc1c[nH]c2ccccc12)C(=O)N(C)CC(=O)N1CCC[C@H]1C(=O)N[C@H](C(=O)N[C@H](C(=O)N[C@@H](CO)C(=O)N[C@@H](CCCNC(=N)N)C(=O)N[C@@H](CCC(=O)O)C(=O)N[C@@H](CC(=O)O)C(N)=O)C(C)C)[C@@H](C)O)C(C)C [PWAIVW(N-Me-G)PTVSRED] (Ac-PWAIVW[Sar]PTVSRED-NH2)
58300

Lab request: please report Ki under test system Sushi domains (SD1/2) protein for CC[C@H](C)[C@H](NC(=O)[C@H](C)NC(=O)[C@H](Cc1c[nH]c2ccccc12)N(C)C(=O)[C@@H]1CCCN1C(C)=O)C(=O)N[C@H](C(=O)N[C@@H](Cc1c[nH]c2ccccc12)C(=O)NCC(=O)N1CCC[C@H]1C(=O)N[C@H](C(=O)N[C@H](C(=O)N[C@@H](CO)C(=O)N[C@@H](CCCNC(=N)N)C(=O)N[C@@H](CCC(=O)O)C(=O)N[C@@H](CC(=O)O)C(N)=O)C(C)C)[C@@H](C)O)C(C)C [P(N-Me-W)AIVWGPTVSRED] (Ac-P[NMeW]AIVWGPTVSRED-NH2)
833

Lab request: please report Ki under test system Sushi domains (SD1/2) protein for CC(=O)N1CCC[C@H]1C(=O)N[C@@H](Cc1c[nH]c2ccccc12)C(=O)N[C@@H](C)C(=O)N[C@@H](C)C(=O)N[C@H](C(=O)N[C@@H](Cc1c[nH]c2ccccc12)C(=O)NCC(=O)N1CCC[C@H]1C(=O)N[C@H](C(=O)N[C@H](C(=O)N[C@@H](CO)C(=O)N[C@@H](CCCNC(=N)N)C(=O)N[C@@H](CCC(=O)O)C(=O)N[C@@H](CC(=O)O)C(N)=O)C(C)C)[C@@H](C)O)C(C)C [PWAAVWGPTVSRED] (Ac-PWAAVWGPTVSRED-NH2)
46600

Lab request: please report Ki under test system Sushi domains (SD1/2) protein for CC[C@H](C)[C@H](NC(=O)[C@H](C)NC(=O)[C@H](Cc1c[nH]c2ccccc12)NC(=O)[C@@H]1CCCN1C(C)=O)C(=O)N[C@H](C(=O)N[C@@H](Cc1c[nH]c2ccccc12)C(=O)NCC(=O)N1CCC[C@H]1C(=O)N[C@H](C(=O)N[C@H](C(=O)N[C@@H](CO)C(=O)N[C@@H](CCCNC(=N)N)C(=O)N[C@@H](C)C(=O)N[C@@H](CC(=O)O)C(N)=O)C(C)C)[C@@H](C)O)C(C)C (Ac-PWAIVWGPTVSRAD-NH2)
600

Lab request: please report Ki under test system Sushi domains (SD1/2) protein for CC[C@H](C)[C@H](NC(=O)[C@H](C)NC(=O)[C@H](Cc1c[nH]c2ccccc12)NC(=O)[C@@H]1CCCN1C(C)=O)C(=O)N[C@H](C(=O)N[C@@H](Cc1c[nH]c2ccccc12)C(=O)NCC(=O)N1CCC[C@H]1C(=O)N[C@H](C(=O)N[C@H](C(=O)N[C@@H](CO)C(=O)N[C@@H](CCCNC(=N)N)C(=O)N(C)[C@@H](CCC(=O)O)C(=O)N[C@@H](CC(=O)O)C(N)=O)C(C)C)[C@@H](C)O)C(C)C (Ac-PWAIVWGPTVSR[NMeE]D-NH2)
523

Lab request: please report Ki under test system Sushi domains (SD1/2) protein for CC[C@H](C)[C@H](NC(=O)[C@H](C)NC(=O)[C@H](Cc1c[nH]c2ccccc12)NC(=O)[C@@H]1CCCN1C(C)=O)C(=O)N[C@H](C(=O)N[C@@H](Cc1c[nH]c2ccccc12)C(=O)NCC(=O)N1CCC[C@H]1C(=O)N[C@H](C(=O)N[C@H](C(=O)N[C@@H](CO)C(=O)N[C@@H](CCCNC(=N)N)C(=O)N[C@@H](CCC(=O)O)C(=O)N[C@@H](C)C(N)=O)C(C)C)[C@@H](C)O)C(C)C (Ac-PWAIVWGPTVSREA-NH2)
572

Lab request: please report Ki under test system Sushi domains (SD1/2) protein for CC[C@H](C)[C@H](NC(=O)[C@H](C)NC(=O)[C@H](Cc1c[nH]c2ccccc12)NC(=O)[C@@H]1CCCN1C(C)=O)C(=O)N(C)[C@H](C(=O)N[C@@H](Cc1c[nH]c2ccccc12)C(=O)NCC(=O)N1CCC[C@H]1C(=O)N[C@H](C(=O)N[C@H](C(=O)N[C@@H](CO)C(=O)N[C@@H](CCCNC(=N)N)C(=O)N[C@@H](CCC(=O)O)C(=O)N[C@@H](CC(=O)O)C(N)=O)C(C)C)[C@@H](C)O)C(C)C [PWAI(N-Me-V)WGPTVSRED] (Ac-PWAI[NMeV]WGPTVSRED-NH2)
7000

Lab request: please report Ki under test system Sushi domains (SD1/2) protein for CC[C@H](C)[C@H](NC(=O)[C@H](C)NC(=O)[C@H](Cc1c[nH]c2ccccc12)NC(=O)[C@@H]1CCCN1C(C)=O)C(=O)N[C@H](C(=O)N[C@@H](Cc1c[nH]c2ccccc12)C(=O)NCC(=O)N1CCC[C@H]1C(=O)N[C@H](C(=O)N[C@H](C(=O)N[C@@H](CO)C(=O)N[C@@H](C)C(=O)N[C@@H](CCC(=O)O)C(=O)N[C@@H](CC(=O)O)C(N)=O)C(C)C)[C@@H](C)O)C(C)C [PWAIVWGPTVSAED] (Ac-PWAIVWGPTVSAED-NH2)
341

Lab request: please report Ki under test system Sushi domains (SD1/2) protein for CC[C@H](C)[C@H](NC(=O)[C@H](C)NC(=O)[C@H](C)NC(=O)[C@@H]1CCCN1C(C)=O)C(=O)N[C@H](C(=O)N[C@@H](Cc1c[nH]c2ccccc12)C(=O)NCC(=O)N1CCC[C@H]1C(=O)N[C@H](C(=O)N[C@H](C(=O)N[C@@H](CO)C(=O)N[C@@H](CCCNC(=N)N)C(=O)N[C@@H](CCC(=O)O)C(=O)N[C@@H](CC(=O)O)C(N)=O)C(C)C)[C@@H](C)O)C(C)C [PAAIVWGPTVSRED] (Ac-PAAIVWGPTVSRED-NH2)
911
